Experiment: self-splicing fitness, log relative to wild type (ln ratio); higher = more splicing; Tetrahymena group I intron in knt gene, E. coli kanamycin selection, DiMSum; sequences stand for … in CUCUCU…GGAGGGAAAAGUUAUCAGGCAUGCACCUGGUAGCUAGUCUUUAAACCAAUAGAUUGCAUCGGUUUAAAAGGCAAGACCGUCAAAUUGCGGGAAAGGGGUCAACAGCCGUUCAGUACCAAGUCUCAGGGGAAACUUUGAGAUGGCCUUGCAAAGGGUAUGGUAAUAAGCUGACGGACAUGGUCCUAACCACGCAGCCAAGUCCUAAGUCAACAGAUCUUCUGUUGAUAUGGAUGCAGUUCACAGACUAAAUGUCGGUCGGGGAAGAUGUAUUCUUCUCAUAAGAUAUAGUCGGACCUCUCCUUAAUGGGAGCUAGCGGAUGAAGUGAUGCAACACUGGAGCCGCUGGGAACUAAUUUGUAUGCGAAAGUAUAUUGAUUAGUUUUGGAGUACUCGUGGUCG;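 note: selection with 25 µg/mL kanamycin versus none on LB agar overnight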
Settings: 37 °C
Would you mind telling me the reported self-splicing fitness (ln) of each entry?
// response body must contain only the number

Asked: Entry UCCCAGCAAUAUUACGUGCU has what self-splicing fitness (ln)?
Given back: -2.92

Asked: Same question, UACAAGCAAUAUUACGGUUG this time
Given back: -1.91

Asked: Same question, AGCGAGCAAUAUUACGUGGU this time
Given back: -3.06

Asked: Same question, CACCAGCAAUAUUACGCGCC this time
Given back: -2.4

Asked: Same question, ACACAGCAAUAUUACGGGCG this time
Given back: -0.369
